- ASSAY_REMARKS: Chromogenic reaction of degrading herbicides in bacteria: 2,4-D
- Type: cell-based, Escherichia coli
- EXPERIMENTAL_CONDITIONS: recombinant E. coli expressing the gene, 2,4-D added to the medium; red = phenols
MEASUREMENT_LABEL: Chromogenic reaction of degrading herbicides in bacteria: 2,4-D

MOLECULE	RESULT
QYD47: AAD-like enzyme, SEQ ID NO. 93 (protein, Synthetic polypeptide, QYD47, D47) MATRLEIKPLDATFGAVVTGIKLAEIDEATWRELHATWLKYALLVFPGQFLKRDQQIAFAKHFGPLEFEMAAISNVKSDGTLRIEKDNDDVMKILKGNMGWHADSTYMPVQAKGAVFSAEEVPTVGGQTGWADMRAAYDALDDARRARVETLQAYHSLHYSQSKLGHETRKSDGEYSGYGLHNGPIPLRPLVKTHPETGRKSLLIGRHAHDIPGMDREESQSFLEELVDFACRPPRIYHHDWAAGDAVVWDNRCLLHQATPWDMTQRRIMWHSRIAGDPASESALAA	Yes
QYD21: AAD-like enzyme, SEQ ID NO. 41 (protein, Synthetic polypeptide, QYD21, D21) MTTIETKPLTPCFGVEVSGMTLSEVSKGHDFARLRDLFEEHSALLFRAQEISNEEHMALAQLFGPIEDRKADERKPGEAFEVPEVSNVQKDGTTSGEMDLHTLNLKSNFLWHSDSTFLPTPALTNILIGRVVTTEGGATELASTRAAWAAMPEELKSRIRGRGIWHRYSHSRRKISPELAKLPMFNKWPDQHWSAVWPNPVNGREGLYIASHAFKVDGYDEAESQELLDELMAFCTQPEFTYAHQWNVGDVLIWDQRAVLHRGTPWPYEQPRTLSSICVSVTEADGIGSIRMPA	Yes
